Molecular target: T1, UNK ZnF1-6 (called full-length) (human, UniProt Q9C0B0 30-357)
T1 sequence: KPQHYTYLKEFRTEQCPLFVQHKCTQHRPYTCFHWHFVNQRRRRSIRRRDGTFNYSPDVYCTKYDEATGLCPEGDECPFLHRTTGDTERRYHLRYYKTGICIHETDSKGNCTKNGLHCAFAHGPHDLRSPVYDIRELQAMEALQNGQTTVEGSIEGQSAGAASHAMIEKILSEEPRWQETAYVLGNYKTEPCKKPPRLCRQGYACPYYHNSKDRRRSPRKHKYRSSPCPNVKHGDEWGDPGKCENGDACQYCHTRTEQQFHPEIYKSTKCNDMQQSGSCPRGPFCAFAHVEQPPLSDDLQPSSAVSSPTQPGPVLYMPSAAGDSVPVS
Experiment: nsRBNS (natural sequence RNA bind-n-seq); RBNS binding buffer (assumed for nsRBNS): 25 mM Tris pH 7.5, 150 mM KCl, 3 mM MgCl2, 0.01% Triton X-100, 500 ug/ml BSA, 20 U/ml SUPERase-In, 4 C; UNK is unkempt and MSI1 is Musashi-1; names of the RNAs are library labels; protein concentration not given here; high values mean tight binding
Over roughly 5,800 sequences, “enrichment r” has its median near 0.68; the highest 2% begin near 11. What follows is part of a selection rich in the highest values, with near analogues and random picks from the rest.
Each entry below carries its recorded binding signal.
Record the value in enrichment R, omitting the unit from your answer.

Example entries and their recorded answers appear below.
binder: chr8:116846039:116846140:-|3pUTR|ENSG00000164754|msi1|FALSE|bound_elsewhere (ssRNA) RNA: GGGAGUUCUACAGUCCGACGAUCACAUUCAAUAUGAUGUGCCUGUAAACCAAGGAGUUUUCCCCGUUUGUAAAAAGACAUUGUAGAUAAUUGAAUGUUUGAUUUUAGAAAGGUCAUUAGUUUCUUGUUACACAUUUUGUUAGUCAACAGAGGAUUGAGCAUCA
binding signal (enrichment R): 5.22

binder: chr20:32237940:32238012:+|3pUTR|ENSG00000101346|msi1_unk|FALSE|overlapping (ssRNA) RNA: GGGAGUUCUACAGUCCGACGAUCUUUCAAAGAUACAAAUAUUUACAUAGUUUUAAUCAUGUAAUAUAUACAAUUUAAUGUCCUAGUGUUUUACUUAAUAGUGUAUCAUGUUUUCCCUGUUGGUAUGUAGCCUGGAUAAAUGCUCAACAGAGGAUUGAGCAUCA
binding signal (enrichment R): 4.06

binder: chrX:129805617:129805718:-|3pUTR|ENSG00000188706|msi1|FALSE|unique (ssRNA) RNA: GGGAGUUCUACAGUCCGACGAUCUCUUUUCCCAUUAGAUAUAUGUAAGUAGUUGUAGUAGAGAUAAUAAUUGACAUUUCUCGUAGACUACCCAGAAACUUUUUUAAUACCUGUGCCAUUCUCAAUAAGAAUUUAUGAGAUGCCCAACAGAGGAUUGAGCAUCA
binding signal (enrichment R): 101

Asked: Provide binding signal value for the following binder: chr6:105100707:105100870:-|3pUTR|ENSG00000112276|msi1|total|mutant (ssRNA) RNA: GGGAGUUCUACAGUCCGACGAUCUGAGAUAUAUAUUUUCACAGUCUUUUCCCGAUAUAUUAUUGUUUUAACUUAACAAAUCUCCGCAAUCUCUCAAUGCCUUUUCACUUAUUUUUUUCCAAGUUAUGAUUCUUUUUCCUCACACAACAGAGGAUUGAGCAUCA
Given back: 3.08

Asked: Provide binding signal value for the following binder: chr3:168010103:168010202:-|3pUTR|ENSG00000173905|msi1_unk|total|mutant (ssRNA) RNA: GGGAGUUCUACAGUCCGACGAUCGCUCAAACAUAAAUCUGCCUACUGAACUCCCGGAUAUUUAAUUACAAAAAUUAAGAACUCCGACUUUUUUAAAACUUUUGUAUCCGAAAUGCGCAUACAUUUAUAUGAAUAUAUUUUGAUCAACAGAGGAUUGAGCAUCA
Given back: 3.17
